These measurements were taken from patent US20260001898A1.

Biological target: TYK2 JH2 (Homo sapiens (Human))
Sequence (P29597 589-875): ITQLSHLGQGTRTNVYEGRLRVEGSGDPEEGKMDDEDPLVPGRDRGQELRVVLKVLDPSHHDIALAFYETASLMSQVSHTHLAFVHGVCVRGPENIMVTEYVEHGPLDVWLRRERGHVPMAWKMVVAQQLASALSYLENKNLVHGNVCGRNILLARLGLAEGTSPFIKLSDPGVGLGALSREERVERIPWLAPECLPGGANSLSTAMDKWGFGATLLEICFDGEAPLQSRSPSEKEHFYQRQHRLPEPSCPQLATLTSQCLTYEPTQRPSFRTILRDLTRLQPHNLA
Assay: Competitive binding assay
Description: For most assays, kinase-tagged T7 phage strains were prepared in an E. coli host derived from the BL21 strain. E. coli were grown to log-phase and infected with T7 phage and incubated with shaking at 32° C. until lysis. The lysates were centrifuged and filtered to remove cell debris. […] Dissociation constants (Kds) were determined using an 11-point 3-fold compound dilution series with three DMSO control points. […] The kinase concentration in the eluates was measured by qPCR. […]
RESULT_TYPE: pKd
Scale explanation: pKd corresponds to minus log10 of a concentration expressed in moles per litre.

stdin: // query pKd value for entry `COc1c(Nc2cc(NC(=O)C3CC3)nnc2C(N)=O)cccc1-c1cc(P(=O)(C2CC2)C2CC2)n(C)n1`
stdout: 11.36
